Data origin: patent US20260209345A1

Target: T1, recombinant LILRB1 ECD (human, UniProt Q8NHL6 24-461)
T1 construct: also called biotinylated LILRB1 ECD
T1 sequence (Q8NHL6 24-461 limits assumed): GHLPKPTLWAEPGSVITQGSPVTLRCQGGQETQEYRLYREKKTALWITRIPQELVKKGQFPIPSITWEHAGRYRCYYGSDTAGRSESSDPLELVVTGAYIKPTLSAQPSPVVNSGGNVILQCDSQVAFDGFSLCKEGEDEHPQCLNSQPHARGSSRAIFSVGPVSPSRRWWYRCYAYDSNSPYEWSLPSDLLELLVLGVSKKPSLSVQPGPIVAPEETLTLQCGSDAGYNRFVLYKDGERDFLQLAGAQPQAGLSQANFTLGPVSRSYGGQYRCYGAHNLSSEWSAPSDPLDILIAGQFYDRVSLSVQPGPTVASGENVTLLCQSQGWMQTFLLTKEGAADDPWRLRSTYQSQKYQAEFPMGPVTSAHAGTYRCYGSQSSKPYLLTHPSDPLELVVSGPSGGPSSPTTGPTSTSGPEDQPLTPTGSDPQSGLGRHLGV
Experiment: BLI, IgG on AHC sensor, ECD in solution
Overview of recorded pKd for various binders
pKd is defined as minus the log10 of a concentration measured in mol/L.

binder="A-012 (antibody, V domains shown, tested as IgG) VH: QVQLVQSGAEVKKPGSSVKVSCKASGGTISEYAFLWVRQAPGQGLEWMGGIIPKFHTANYAQKFQGRVTITADESTSTAYMELSSLRSEDTAVYYCAKDLGTYSSGWPYYYGMDVWGQGTTVTVSS VL: SYELTQPPSVSVSPGQTASITCSGDKLGDKYASWYQQKPGQSPVLVIYQDSKRPSGIPERFSGSNSGNTATLTISGTQAEDEADYYCQSTTHTSFVFGGGTKLTVL" observed=7.89
binder="A-034 (antibody, V domains shown, tested as IgG) VH: QVQLVQSGAEVKKPGSSVKVSCKASGGTFSSYAISWVRQAPGQGLEWMGGIIPIFGTANYAQKFQGRVTITADESTSTAYMELSSLRSEDTAVYYCAKDLGTYSSGWPYYYGMDVWGQGTTVTVSS VL: SYELTQPPSVSVSPGQTASITCSGDKLGDKYASWYQQKPGQSPVLVIYQDSKRPSGIPERFSGSNSGNTATLTISGTQAEDEADYYCQLYGHTITVFGGGTKLTVL" observed=7.79

Proceed to the following item.
Supply recorded pKd for A-015 (antibody, V domains shown, tested as IgG) VH: QVQLVQSGAEVKKPGSSVKVSCKASGGSFQSYAINWVRQAPGQGLEWMGGIIPGFSTANYAQKFQGRVTITADESTSTAYMELSSLRSEDTAVYYCAKDLGTYSSGWPYYYGMDVWGQGTTVTVSS VL: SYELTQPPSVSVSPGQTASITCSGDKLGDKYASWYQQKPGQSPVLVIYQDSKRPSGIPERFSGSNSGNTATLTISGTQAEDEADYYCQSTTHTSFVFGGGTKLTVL here. 8.30
